Experiment: In vitro anti-inflammatory activity assessed as inhibition of heat-induced albumin denaturtion incubated for 15 min followed by heating measured after 10 min
Assay type: functional
assayMetric: IC50 (ppm)

CC1=C(C(=O)Nc2ccccc2)C(c2ccc(Cl)cc2)n2c(s/c(=C\c3ccc(N(C)C)cc3)c2=O)=N1 (centres undefined) | 309.862
COc1ccc(C2C(C(=O)Nc3ccccc3)=C(C)N=c3o/c(=C\c4ccc([N+](=O)[O-])cc4)c(=O)n32)cc1 (centres undefined) | 272.584
CC1=C(C(=O)Nc2ccccc2)C(c2ccccc2)n2c(o/c(=C\c3ccc(N(C)C)cc3)c2=O)=N1 (centres undefined) | 330.312
CC1=C(C(=O)Nc2ccccc2)C(c2ccccc2)n2c(s/c(=C\c3ccc(N(C)C)cc3)c2=O)=N1 (centres undefined) | 316.686

====

Assay: In vitro anti-inflammatory activity assessed as inhibition of heat-induced albumin denaturtion incubated for 15 min followed by heating measured after 10 min
Type: functional
assayMetric: IC50 (ppm)

COc1ccc(C2C(C(=O)Nc3ccccc3)=C(C)N=c3s/c(=C\c4ccc(Cl)cc4)c(=O)n32)cc1 (stereo unspecified) | 210.874
COc1ccc(C2C(C(=O)Nc3ccccc3)=C(C)N=c3s/c(=C\c4ccc(N(C)C)cc4)c(=O)n32)cc1 (stereo unspecified) | 301.677
CC1=C(C(=O)Nc2ccccc2)C(c2ccc(Cl)cc2)n2c(s/c(=C\c3ccc([N+](=O)[O-])cc3)c2=O)=N1 (stereo unspecified) | 190.42
CC1=C(C(=O)Nc2ccccc2)C(c2ccc([N+](=O)[O-])cc2)n2c(s/c(=C\c3ccc(Cl)cc3)c2=O)=N1 (stereo unspecified) | 194.611
COc1ccc(C2C(C(=O)Nc3ccccc3)=C(C)N=c3o/c(=C\c4ccc(N(C)C)cc4)c(=O)n32)cc1 (stereo unspecified) | 314.544

a = COc1ccc(/C=c2\sc3n(c2=O)C(c2ccc(Cl)cc2)C(C(=O)Nc2ccccc2)=C(C)N=3)cc1 (stereo unspecified)
b = CC1=C(C(=O)Nc2ccccc2)C(c2ccc([N+](=O)[O-])cc2)n2c(o/c(=C\c3ccc(N(C)C)cc3)c2=O)=N1 (stereo unspecified)
Query: Dear colleague, could you let me know whether a or b has the lower recorded IC50? Thanks. Answer by stating the label of the chosen item.
Result: a

====

Assay: In vitro anti-inflammatory activity assessed as inhibition of heat-induced albumin denaturtion incubated for 15 min followed by heating measured after 10 min
Format: functional
assayMetric: IC50 (ppm)

CC1=C(C(=O)Nc2ccccc2)C(c2ccc(Cl)cc2)n2c(o/c(=C\c3ccc(N(C)C)cc3)c2=O)=N1 (configuration not stated) | 319.524
COc1ccc(/C=c2\oc3n(c2=O)C(c2ccc(Cl)cc2)C(C(=O)Nc2ccccc2)=C(C)N=3)cc1 (configuration not stated) | 242.144
COc1ccc(/C=c2\oc3n(c2=O)C(c2ccc([N+](=O)[O-])cc2)C(C(=O)Nc2ccccc2)=C(C)N=3)cc1 (configuration not stated) | 259.104
CC1=C(C(=O)Nc2ccccc2)C(c2ccc([N+](=O)[O-])cc2)n2c(s/c(=C\c3ccc(N(C)C)cc3)c2=O)=N1 (configuration not stated) | 336.75
COc1ccc(/C=c2\sc3n(c2=O)C(c2ccc([N+](=O)[O-])cc2)C(C(=O)Nc2ccccc2)=C(C)N=3)cc1 (configuration not stated) | 250.38
CC1=C(C(=O)Nc2ccccc2)C(c2ccccc2)n2c(o/c(=C\c3ccc([N+](=O)[O-])cc3)c2=O)=N1 (configuration not stated) | 283.525
COc1ccc(/C=c2\sc3n(c2=O)C(c2ccccc2)C(C(=O)Nc2ccccc2)=C(C)N=3)cc1 (configuration not stated) | 291.257

====

Test: In vitro anti-inflammatory activity assessed as inhibition of heat-induced albumin denaturtion incubated for 15 min followed by heating measured after 10 min
Format: functional
assayMetric: IC50 (ppm)

COc1ccc(/C=c2\oc3n(c2=O)C(c2ccccc2)C(C(=O)Nc2ccccc2)=C(C)N=3)cc1 (centres undefined) | 304.179
CC1=C(C(=O)Nc2ccccc2)C(c2ccc([N+](=O)[O-])cc2)n2c(o/c(=C\c3ccc(Cl)cc3)c2=O)=N1 (centres undefined) | 196.05
CC1=C(C(=O)Nc2ccccc2)C(c2ccc(Cl)cc2)n2c(o/c(=C\c3ccc([N+](=O)[O-])cc3)c2=O)=N1 (centres undefined) | 192.486
COc1ccc(C2C(C(=O)Nc3ccccc3)=C(C)N=c3o/c(=C\c4ccc(Cl)cc4)c(=O)n32)cc1 (centres undefined) | 236.954
COc1ccc(C2C(C(=O)Nc3ccccc3)=C(C)N=c3s/c(=C\c4ccc([N+](=O)[O-])cc4)c(=O)n32)cc1 (centres undefined) | 254.99
CC1=C(C(=O)Nc2ccccc2)C(c2ccccc2)n2c(s/c(=C\c3ccc([N+](=O)[O-])cc3)c2=O)=N1 (centres undefined) | 253.376
O=C([O-])Cc1ccccc1Nc1c(Cl)cccc1Cl.[Na+] [DICLOFENAC SODIUM] | 188.24
CC1=C(C(=O)Nc2ccccc2)C(c2ccccc2)n2c(o/c(=C\c3ccc(Cl)cc3)c2=O)=N1 (centres undefined) | 261.464
CC1=C(C(=O)Nc2ccccc2)C(c2ccccc2)n2c(s/c(=C\c3ccc(Cl)cc3)c2=O)=N1 (centres undefined) | 226.318
